- Measured Target: Recombinant human JARID1B/KDM5B (Homo sapiens)
- Construct: purchased Active Motif 31432; host or cells: Sf9 insect cells
- Procedure Details: LANCE Ultra TR-FRET demethylase assay with FLAG-tagged JARID1B
- Type: biochemical
- Experimental Parameters: 100 nM compound; 500 nM biotinylated H3K4me3 peptide substrate
Measured Quantity: inhibition at 0.1 µM

Sample answers from the record:
{"columns": ["Molecule", "inhibition at 0.1 µM"],
 "data": [
  ["CN1CCC(CNCc2nccc3c(=O)[nH]c(COc4ccc(F)c(Cl)c4)nc23)C1 (centres unmarked) [Example 159]", "> 50%"],
  ["O=c1[nH]c(COc2ccc(F)c(Cl)c2)nc2c(CNCC3CCNCC3)nccc12 [Example 126]", "> 50%"]
]}

# batch: return inhibition at 0.1 µM for each of the 4 molecules below
1. Cc1ccc(OCc2nc3c(CNCC4CCNCC4)nccc3c(=O)[nH]2)cc1C [Example 136]
2. O=c1[nH]c(COc2ccccc2F)nc2c(CNCC3CCNCC3)nccc12 [Example 116]
3. C[C@@H](Oc1ccc(Cc2ccccc2)cc1)c1nc2c(CNCC3CCNCC3)nccc2c(=O)[nH]1 [Example 215]
4. O=c1[nH]c(COc2cccc(Cl)c2Cl)nc2c(CNCC3CCNCC3)nccc12 [Example 113]

1. 20 to 50%
2. 20 to 50%
3. > 50%
4. 20 to 50%

For every record below, what is its inhibition at 0.1 µM?
1. CN1CCC(CNCc2nccc3c(=O)[nH]cnc23)C1 (centres unmarked) [Example 92]
2. C[C@@H](Oc1ccc(F)c(Cl)c1)c1nc2c(CNCC3CCNCC3)nccc2c(=O)[nH]1 [Example 217]

1: 20 to 50%; 2: < 20%

---

- Measured Target: Recombinant human JARID1B/KDM5B (Homo sapiens, UniProt Q9UGL1)
- Construct: purchased Active Motif 31432; host or cells: Sf9 insect cells
- Sequence (Q9UGL1 whole entry): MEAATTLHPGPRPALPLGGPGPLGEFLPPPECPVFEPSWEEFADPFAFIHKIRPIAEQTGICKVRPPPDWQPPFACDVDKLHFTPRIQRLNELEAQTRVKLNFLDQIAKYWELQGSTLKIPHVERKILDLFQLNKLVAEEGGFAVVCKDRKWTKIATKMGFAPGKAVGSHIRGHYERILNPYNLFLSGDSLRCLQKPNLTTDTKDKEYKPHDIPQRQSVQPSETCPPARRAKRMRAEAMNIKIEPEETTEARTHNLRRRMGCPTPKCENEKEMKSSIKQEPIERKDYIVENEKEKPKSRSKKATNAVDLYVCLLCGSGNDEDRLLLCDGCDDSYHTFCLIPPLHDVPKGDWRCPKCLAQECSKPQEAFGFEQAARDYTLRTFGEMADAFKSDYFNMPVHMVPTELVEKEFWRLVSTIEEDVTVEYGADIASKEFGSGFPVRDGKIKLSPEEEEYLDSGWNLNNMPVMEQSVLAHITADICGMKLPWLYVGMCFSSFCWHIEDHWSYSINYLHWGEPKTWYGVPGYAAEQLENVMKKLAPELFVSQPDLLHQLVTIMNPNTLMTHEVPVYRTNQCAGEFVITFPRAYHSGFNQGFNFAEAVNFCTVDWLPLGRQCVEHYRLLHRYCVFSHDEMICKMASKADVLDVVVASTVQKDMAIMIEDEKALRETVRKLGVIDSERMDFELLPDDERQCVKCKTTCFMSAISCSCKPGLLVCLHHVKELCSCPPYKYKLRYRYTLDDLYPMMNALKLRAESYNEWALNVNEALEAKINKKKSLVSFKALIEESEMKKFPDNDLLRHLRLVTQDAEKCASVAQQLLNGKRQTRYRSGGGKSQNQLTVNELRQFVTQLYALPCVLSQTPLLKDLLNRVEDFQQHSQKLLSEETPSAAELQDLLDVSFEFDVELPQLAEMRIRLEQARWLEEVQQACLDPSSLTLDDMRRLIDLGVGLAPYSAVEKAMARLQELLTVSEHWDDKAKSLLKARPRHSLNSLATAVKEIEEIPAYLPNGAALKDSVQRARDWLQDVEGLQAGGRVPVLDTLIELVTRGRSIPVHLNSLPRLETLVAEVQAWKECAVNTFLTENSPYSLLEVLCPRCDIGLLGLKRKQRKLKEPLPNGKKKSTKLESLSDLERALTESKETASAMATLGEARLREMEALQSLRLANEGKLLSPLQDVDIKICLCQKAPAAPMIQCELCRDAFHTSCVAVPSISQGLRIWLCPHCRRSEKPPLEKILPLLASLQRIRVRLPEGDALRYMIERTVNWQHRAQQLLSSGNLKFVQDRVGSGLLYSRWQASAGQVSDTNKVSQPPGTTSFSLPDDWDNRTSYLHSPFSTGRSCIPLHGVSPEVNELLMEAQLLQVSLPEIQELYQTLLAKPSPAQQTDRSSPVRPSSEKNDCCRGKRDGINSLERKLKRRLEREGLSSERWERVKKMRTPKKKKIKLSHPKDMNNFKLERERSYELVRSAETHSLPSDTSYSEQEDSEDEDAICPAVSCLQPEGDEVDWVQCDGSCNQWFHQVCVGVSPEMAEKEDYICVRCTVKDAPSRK
- Procedure Details: LANCE Ultra TR-FRET demethylase assay with FLAG-tagged JARID1B
- Assay type: biochemical
- Experimental Parameters: 100 nM compound; 500 nM biotinylated H3K4me3 peptide substrate
What inhibition at 0.1 µM was measured for each of the following?

For orientation, consider the following solved cases.
{"columns": ["Compound", "inhibition at 0.1 µM"],
 "data": [
  ["O=c1[nH]c(COc2ccc(Cc3ccccc3)cc2)nc2c(CNCC3CNC3)nccc12", "> 50%"],
  ["O=c1[nH]c(COc2ccccc2Cl)nc2c(CNCC3CCNCC3)nccc12", "20 to 50%"],
  ["O=c1[nH]cnc2c(CNCC3CCCN(Cc4ccccc4)C3)nccc12 (stereo not drawn)", "20 to 50%"],
  ["O=c1[nH]c(COc2ccc3c(c2)CCC3)nc2c(CNCC3CCNCC3)nccc12", "20 to 50%"],
  ["CN1CCC(CNCc2nccc3c(=O)[nH]c(C4CCCC4)nc23)CC1", "< 20%"],
  ["O=C(NCc1nccc2c(=O)[nH]c(COc3ccc(F)c(Cl)c3)nc12)C1CCCNC1 (stereo not drawn)", "< 20%"],
  ["Cc1cc(Cl)ccc1OCc1nc2c(CNCC3CCNCC3)nccc2c(=O)[nH]1", "20 to 50%"],
  ["O=c1[nH]c(COc2ccc(F)c(Cl)c2)nc2c(CNCC3CCOCC3)nccc12", "< 20%"],
  ["O=c1[nH]c(C2Cc3ccccc3O2)nc2c(CNCC3CCNCC3)nccc12 (stereo not drawn)", "20 to 50%"],
  ["CN1CCC(CNCc2nccc3c(=O)[nH]c(C4CCc5ccccc5O4)nc23)CC1 (stereo not drawn)", "20 to 50%"]
]}

For every listed record, write down its inhibition at 0.1 µM.
1. CCN(CC)CCCC(C)NCc1nccc2c(=O)[nH]cnc12 (stereo not drawn)
2. CN1CCCC(CNCc2nccc3c(=O)[nH]cnc23)C1 (stereo not drawn)
3. O=C(CNCc1nccc2c(=O)[nH]c(COc3ccc(F)c(Cl)c3)nc12)N[C@@H]1CCNC1
4. N#Cc1ccccc1OCc1nc2c(CNCC3CCNCC3)nccc2c(=O)[nH]1
5. O=c1[nH]c(COc2ccc(F)c(Cl)c2)nc2c(CNCc3ccncc3)nccc12
6. O=c1[nH]c(COc2ccc(Br)cc2)nc2c(CNCC3CCN(Cc4ccccc4)CC3)nccc12
7. O=C(CNCc1nccc2c(=O)[nH]c(COc3ccc(F)c(Cl)c3)nc12)N[C@H]1CC[C@H](N2CCCC2)O1 (relative stereo)

["< 20%", "> 50%", "> 50%", "20 to 50%", "20 to 50%", "> 50%", "> 50%"]

Go through the list and state inhibition at 0.1 µM for each entry.
1. O=C(CNCc1nccc2c(=O)[nH]c(COc3ccc(F)c(Cl)c3)nc12)N1CCC(N2CCOCC2)C1 (stereo not drawn)
2. O=c1[nH]c(COc2ccc(F)c(Cl)c2)nc2c(CNCCN3CCOCC3)nccc12
3. O=c1[nH]c(COc2ccc(F)c(Cl)c2)nc2c(CNCc3ncccn3)nccc12

20 to 50%
20 to 50%
20 to 50%

Dear reader, for each entry below, please note its inhibition at 0.1 µM.
1. O=c1[nH]cnc2c(CNCC3CCNCC3)nccc12
2. CN1CCOC(CNCc2nccc3c(=O)[nH]c(COc4ccc(F)c(Cl)c4)nc23)C1 (stereo not drawn)
3. O=c1[nH]c(COc2ccc(Cc3ccccc3)cc2)nc2c(CNCCN3CCOCC3)nccc12
4. O=c1[nH]c(COc2ccc(F)c(Cl)c2)nc2c(CNC[C@H]3CCNC3)nccc12
5. CN1CCN(C(=O)CNCc2nccc3c(=O)[nH]c(COc4ccc(F)c(Cl)c4)nc23)CC1

["20 to 50%", "20 to 50%", "20 to 50%", "> 50%", "> 50%"]

Provide inhibition at 0.1 µM for all items below, preserving their order.
1. CNC1CCN(C(=O)CNCc2nccc3c(=O)[nH]c(COc4ccc(F)c(Cl)c4)nc23)C1 (stereo not drawn)
2. O=c1[nH]c(COc2ccc(Cc3ccccc3)cc2)nc2c(CNC[C@@H]3CCCNC3)nccc12
3. O=c1[nH]c(COCc2ccccc2Cl)nc2c(CNCC3CCNCC3)nccc12

> 50%
> 50%
> 50%

Your task in this section: give inhibition at 0.1 µM for each listed record.
1. C[C@H](Oc1ccc(F)c(Cl)c1)c1nc2c(CNCC3CCNCC3)nccc2c(=O)[nH]1
2. CN1CCC(N2CCC(CNCc3nccc4c(=O)[nH]cnc34)CC2)CC1
3. Cc1cc(CNCc2nccc3c(=O)[nH]c(COc4ccc(F)c(Cl)c4)nc23)on1
4. CN1CCC(CNCc2nccc3c(=O)[nH]c(C4Cc5ccccc5O4)nc23)CC1 (stereo not drawn)
5. O=c1[nH]c(COc2ccc(F)c(Cl)c2)nc2c(CNCCc3cccs3)nccc12

20 to 50%
20 to 50%
20 to 50%
20 to 50%
20 to 50%

---

- Measured Target: Recombinant human JARID1B/KDM5B (Homo sapiens)
- Construct: purchased Active Motif 31432; host or cells: Sf9 insect cells
- Procedure Details: LANCE Ultra TR-FRET demethylase assay with FLAG-tagged JARID1B
- Assay type: biochemical
- Experimental Parameters: 100 nM compound; 500 nM biotinylated H3K4me3 peptide substrate
Measured Quantity: inhibition at 0.1 µM

Please review the entries below; each comes with its answer.
{"columns": ["Compound", "Measured Target", "inhibition at 0.1 µM"],
 "data": [
  ["C[C@H](Oc1ccc(F)c(Cl)c1)c1nc2c(CNCC3CCN(C)CC3)nccc2c(=O)[nH]1 [Example 220]", "Recombinant human JARID1B/KDM5B (Homo sapiens)", "> 50%"],
  ["O=c1[nH]c(COCc2cccc(Cl)c2)nc2c(CNC[C@H]3CCNC3)nccc12 [Example 208]", "Recombinant human JARID1B/KDM5B (Homo sapiens)", "> 50%"],
  ["O=c1[nH]c(COc2cccc(CNCCN3CCOCC3)c2)nc2cnccc12 [Example 45]", "Recombinant human JARID1B/KDM5B (Homo sapiens)", "< 20%"]
]}

Record inhibition at 0.1 µM for all entries; do not skip any.
1. O=c1[nH]c(COCc2cccc(Cl)c2)nc2c(CNCC3CCNCC3)nccc12 [Example 206]
2. CCc1ccc(OCc2nc3c(CNCC4CCNCC4)nccc3c(=O)[nH]2)cc1 [Example 135]
3. O=c1[nH]c(COc2ccc(Cc3ccccc3)cc2)nc2c(CNC[C@@H]3CCNC3)nccc12 [Example 151]
4. CN1CCC(CNCc2nccc3c(=O)[nH]c(COc4ccc(Cc5ccccc5)cc4)nc23)CC1 [Example 152]
5. O=c1[nH]c(C2CCCO2)nc2c(CNCC3CCNCC3)nccc12 (centres unmarked) [Example 193]

1. > 50%
2. 20 to 50%
3. 20 to 50%
4. > 50%
5. < 20%
